Test system: HL-60(TB) leukemia
Experiment notes: NCI tumour cell line growth inhibition, 48 h
Where a SMILES comes first, the peptide text is derived from it. Bridges are numbered along the chain shown (N, C = ends). [ ]: non-standard residue; d: D form. The star is where a group is joined. Cbz = O=C(OCc1ccccc1)*; Aib = CC(C)(N)C(=O)O; OBn = c1ccc(CO*)cc1; βAla = NCCC(=O)O
Outcome: criterion met for TGI of at least 20 µM; criterion not met for anything lower.

- Compound: "CC(=O)c1cccc2c1CC1(C2)Cc2ccc3c(c2C1=O)CCC3 (stereo not given)"
  Label: "criterion met"
- Compound: "C[C@]12CC[C@@H]3c4ccc(O)cc4C[C@@H](CCCCCCCCCS(=O)CCCC(F)(F)C(F)(F)F)[C@H]3[C@@H]1CC[C@@H]2O (stereo not given in full)"
  Label: "criterion met"
- Compound: "CNC(=O)N1CCN(C(=O)NC)CCN(C(=O)NC)CC1"
  Label: "criterion met"
- Compound: "COC(=O)C(=O)C(C(=O)C=C(C)C)C(=O)C(=O)Nc1ccc(Cl)cc1C (stereo not given)"
  Label: "criterion met"
- Compound: "O=C(NCCCNC(=O)c1ccc2cc(O)c(O)cc2c1)c1ccc2cc(O)c(O)cc2c1"
  Label: "criterion met"
- Compound: "Cn1c(=O)c2c(nc(NCCCCl)n2CC(=O)NCCCCl)n(C)c1=O"
  Label: "criterion met"
- Compound: "Cc1cccc(N2C(=O)C(Cl)=C(Cl)C2=O)c1"
  Label: "criterion met"
- Compound: "O=C1NC(Nc2cccc(Cl)c2)=N/C1=C\\c1ccc(Cl)c(Cl)c1"
  Label: "criterion not met"
- Compound: "COc1ccc(/C(=N/Nc2ccc([N+](=O)[O-])cc2)Sc2cc(Cl)c(C)cc2S(N)(=O)=O)cc1"
  Label: "criterion met"
- Compound: "CC(=O)OCC1OC(N2C(c3ccccc3)=CC(c3ccccc3)C(C#N)=C2S)C(OC(C)=O)C(OC(C)=O)C1OC(C)=O (stereo not given)"
  Label: "criterion met"
- Compound: "COc1ccc(-n2cc(-c3cc(OC)c(OC)c(OC)c3)[nH]c2=S)cc1OC"
  Label: "criterion met"
- Compound: "COc1cc(C2c3cc4c(cc3[C@@H](Nc3ccccc3)C3CO[C@@H](OC)[C@H]23)OCO4)cc(OC)c1O (stereo not given in full)"
  Label: "criterion not met"
- Compound: "CC(C(=O)N1c2ccccc2Sc2ccccc21)N1c2ccccc2Sc2ccccc21 (stereo not given)"
  Label: "criterion met"
- Compound: "CC1=C2C3=C(C)C(=O)C(C)(C)CC[C@@]3(C)[C@]2(C)CCC(C)(C)C1=O"
  Label: "criterion met"
- Compound: "COc1ccccc1N1C(=O)/C(=C\\c2cccc(Oc3ccccc3)c2)SC1c1ccccc1 (stereo not given)"
  Label: "criterion met"
- Compound: "Nc1nc(Cl)cc(NCC2(CO)COC2)n1"
  Label: "criterion met"
- Compound: "CN(C)C(=S)SN(C)C(=O)Nc1ccccc1"
  Label: "criterion met"
- Compound: "C1=C2C3=[N+](CCCC3)CC2Cc2ccsc21 (stereo not given)"
  Label: "criterion met"
- Compound: "NC1C2(CCCCCC2)NC(=O)C12CCCCCC2 (stereo not given)"
  Label: "criterion met"
- Compound: "Oc1ccc2ccccc2c1N=Nc1ccc(F)cc1"
  Label: "criterion met"
- Compound: "O=C(CC(=O)N(C(=O)c1ccccc1)c1ccc(Cl)cc1)N/N=C\\c1cc(N=Nc2ccccc2Cl)ccc1O"
  Label: "criterion met"
- Compound: "CCCCNC(=O)NS(=O)(=O)c1ccc(N2N=C(c3ccc(C)cc3C)CC2c2ccc(N(C)C)cc2)cc1 (stereo not given)"
  Label: "criterion not met"
- Compound: "O=[N+]([O-])c1ccccc1N=Nc1c(O)sc2ccccc12"
  Label: "criterion met"
- Compound: "CC1(C)NC(=O)C(NC(=O)C(CC(=O)OCc2ccccc2)NC(=O)OCc2ccccc2)CCCCNC(=O)CCNC1=O (stereo not given) (Cbz-D(OBn)K[Aib][βAla]; lactam 2-C; configuration not given here)"
  Label: "criterion met"
- Compound: "CCCNC(=S)N/N=C(\\C)c1ccccn1"
  Label: "criterion not met"
- Compound: "Cc1cc(O)c(/C=N/C(=S)NCCc2ccccc2)c(=O)o1"
  Label: "criterion met"
- Compound: "CSc1ccc(/C=C2/C[N+](C)(C)C/C(=C/c3ccc(SC)cc3)C2=O)cc1"
  Label: "criterion not met"
- Compound: "COc1ccc(-c2nc(-c3nc4ccc(C)cc4[nH]3)c3ccccn23)cc1"
  Label: "criterion not met"
- Compound: "CCOC(=O)NC(Nc1ccc(S(=O)(=O)Nc2ncccn2)cc1)(C(=O)OCC)C(F)(F)F (stereo not given)"
  Label: "criterion met"
- Compound: "CC(C)CC(N)C(=O)O (stereo not given)"
  Label: "criterion met"
- Compound: "O=[N+]([O-])c1ccc2nnnn2c1"
  Label: "criterion met"
- Compound: "Cc1ccc(N=NC(C(=O)c2ccccc2)C(=O)c2ccccc2)cc1"
  Label: "criterion met"
- Compound: "Brc1ccc2c(-c3nc(-c4c[nH]c5ccc(Br)cc45)cs3)c[nH]c2c1"
  Label: "criterion met"
- Compound: "Cc1[nH]c(N=Nc2ccccc2)nc1N=Nc1ccccc1"
  Label: "criterion met"
- Compound: "COc1ccc(S(=O)(=O)N(Cc2ccc3c(n2)C=CC(C)(C)O3)C2CCC2)cc1OC"
  Label: "criterion not met"
- Compound: "Cc1ccc2nc3ccccc3c(C3C4C(=O)N(c5ccc(Br)cc5Cl)C(=O)C4ON3C(C(N)=O)c3ccccc3)c2c1 (stereo not given)"
  Label: "criterion met"
- Compound: "O=C(/C=C/c1ccccc1Cl)c1ccccc1Cl"
  Label: "criterion met"
- Compound: "COC(=O)CSc1n[nH]c(-c2ccc(O)c([N+](=O)[O-])c2)n1"
  Label: "criterion met"
- Compound: "CSc1ccc(C2C(Cl)C(=O)N2NC(=O)c2c(Cl)c(Cl)c(Cl)c(Cl)c2-c2nc3ccccc3[nH]2)cc1 (stereo not given)"
  Label: "criterion met"
